test system: Plasmodium berghei; experiment: Luciferase/luciferin-expressing antifolate-resistant parasites were used to infect a culture of HepG2 cells that were pre-incubated with compounds. Infected hepatocytes emit light due to the luciferase reaction. Assay results are presented as the percent inhibition of light emission compared to control. […]; type: functional; settings: sporozoite, PBLUC_HILL_SLOPE 2.2, PBLUC_R_SQUARED 0.808, read-out: LUCIFERASE INFECTION ASSAY - IC50
assayReadout: pIC50
// pIC50: -log10(molar conc.)

Request: Please give the measured pIC50 for this compound: Cc1cc([N+](=O)[O-])cc(S(=O)(=O)N(Cc2ccc(C(=O)NC3CC3)cc2)C2CC2)c1C
Response: 6.10

====

system: Plasmodium berghei; assay: Luciferase/luciferin-expressing antifolate-resistant parasites were used to infect a culture of HepG2 cells that were pre-incubated with compounds. Infected hepatocytes emit light due to the luciferase reaction. Assay results are presented as the percent inhibition of light emission compared to control. […]; format: functional; conditions: sporozoite, PBLUC_HILL_SLOPE 3.88, PBLUC_R_SQUARED 0.658, read-out: LUCIFERASE INFECTION ASSAY - IC50
assayReadout: IC50 (µM)
Field format: number, assumed µM, no unit text.

Request: Please give the measured IC50 for this molecule: O=C(Cn1cnc2c(cnn2-c2ccccc2[N+](=O)[O-])c1=O)Nc1ccc(OCc2ccccc2)cc1
Response: 7.44

====

system: Plasmodium berghei; assay: Luciferase/luciferin-expressing antifolate-resistant parasites were used to infect a culture of HepG2 cells that were pre-incubated with compounds. Infected hepatocytes emit light due to the luciferase reaction. Assay results are presented as the percent inhibition of light emission compared to control. […]; format: functional; settings: sporozoite, read-out: LUCIFERASE INFECTION ASSAY - IC90
IC90: recorded values

Here's what some known entries look like.
1) COc1ccc(CN2C(=O)N(CC(C)C)C3(CCN(CCCc4ccccc4)CC3)C2=O)cc1; 4.86 µM
2) Cc1nn(Cc2ccccc2)c(C)c1C(=O)N1CCN(CCOc2ccc(Cl)cc2)CC1; > 10 µM
3) Cc1ccccc1OCC(O)CN(CC(C)C)CC(C)C (configuration not stated); > 10 µM

Now turn to the next compound.
Request: Please give the measured IC90 for this compound: Cc1nn(-c2ccccc2)c(N2CCCC2)c1/C=N/Nc1ccc(S(N)(=O)=O)cc1[N+](=O)[O-]
Response: > 10 µM

====

IC90: recorded values
tested on: Plasmodium berghei; assay: Luciferase/luciferin-expressing antifolate-resistant parasites were used to infect a culture of HepG2 cells that were pre-incubated with compounds. Infected hepatocytes emit light due to the luciferase reaction. Assay results are presented as the percent inhibition of light emission compared to control. […]; format: functional; details: sporozoite, read-out: LUCIFERASE INFECTION ASSAY - IC90
Field format: number, assumed µM, no unit text.

1. CC(OC(=O)[C@@H](Nc1ccc(C(F)(F)F)cc1Cl)C(C)C)C(=O)NC(=O)NC1CCCCC1 (stereo not given in full); 6.57
2. NC(=O)c1ccc(-c2cc(-c3ccc(F)cc3)cnc2N)cc1; 2.33
3. NNc1nc(C(F)(F)F)nc2c1cnn2-c1ccccc1; 5.03

Now turn to the next compound.
Request: Please give the measured IC90 for this compound: COc1cc(Nc2cc3c(cn2)cc(-c2cnn(C)c2)n3Cc2ccccc2)cc(OC)c1OC
Response: 3.72

====

test system: Plasmodium berghei; assay: Luciferase/luciferin-expressing antifolate-resistant parasites were used to infect a culture of HepG2 cells that were pre-incubated with compounds. Infected hepatocytes emit light due to the luciferase reaction. Assay results are presented as the percent inhibition of light emission compared to control. […]; format: functional; details: sporozoite, HEPG2TOX_HILL_SLOPE 2.35, HEPG2TOX_R_SQUARED 0.908, PBLUC_HILL_SLOPE 2.49, PBLUC_R_SQUARED 0.764, read-out: LUCIFERASE INFECTION ASSAY - IC50
assayReadout: pIC50
// pIC50: -log10(molar conc.)

Request: Please give the measured pIC50 for this molecule: Cc1cc(N(Cc2ccc(C(C)C)cc2)C2CC2)n2ncnc2n1
Response: 5.31

====

system: Plasmodium berghei; assay: Luciferase/luciferin-expressing antifolate-resistant parasites were used to infect a culture of HepG2 cells that were pre-incubated with compounds. Infected hepatocytes emit light due to the luciferase reaction. Assay results are presented as the percent inhibition of light emission compared to control. […]; type: functional; details: sporozoite, PBLUC_HILL_SLOPE 2.36, PBLUC_R_SQUARED 0.164, read-out: LUCIFERASE INFECTION ASSAY - IC50
assayReadout: pIC50
// pIC50: -log10(molar conc.)

Request: Please give the measured pIC50 for this molecule: CN(C)c1ccc(-c2cnn3c(Nc4ccc(Oc5ccccc5)cc4)ccnc23)cc1
Response: 5.18

====

system: Plasmodium berghei; experiment: Luciferase/luciferin-expressing antifolate-resistant parasites were used to infect a culture of HepG2 cells that were pre-incubated with compounds. Infected hepatocytes emit light due to the luciferase reaction. Assay results are presented as the percent inhibition of light emission compared to control. […]; format: functional; details: sporozoite, read-out: LUCIFERASE INFECTION ASSAY - IC90
assayReadout: IC90

1. COc1cc(/C=C2\COC/C(=C\c3cc(OC)c(OC)c(OC)c3)C2=O)cc(OC)c1OC; 0.888 µM
2. C=CCc1ccc(O)c(-c2ccc(O)c(CC=C)c2)c1; > 12.4 µM
3. OC(COc1ccc2cc(Br)ccc2c1)CN1CCCC1 (stereo not given); > 9.42 µM

Request: Please give the measured IC90 for this compound: COc1cc(C)c2c(c1)C=CC1C2CCC2(C)C(O)CCC12 (stereo not given)
Response: > 11.1 µM

Request: Now the compound CN(C)CCNC(=O)c1ccc(-c2cc(-c3cc4ccccc4s3)cnc2N)cc1
Response: > 7.92 µM

Request: Now the compound Brc1ccc(CNc2ccc3ncccc3c2)cc1
Response: > 10.5 µM

Request: Now the compound COC(=O)c1c(NC(=O)c2cccnc2)c2cc(NCC3CCCCC3)cnc2n1Cc1ccccc1
Response: > 6.63 µM

Request: Now the compound C#CCSc1nc2ccc(Cl)cc2c(=O)n1-c1cc(OC(C)C)c(Cl)cc1Cl
Response: > 7.27 µM

Request: Now the compound COc1ccc(OC)c(CCNc2nc3cnc(-c4cc(OC)c(OC)c(OC)c4)cc3n2C)c1
Response: > 10 µM

Request: Now the compound CCCOc1ccc2ccccc2c1CN(C)c1cncc(-n2cccn2)n1
Response: > 10 µM

====

test system: Plasmodium berghei; assay: Luciferase/luciferin-expressing antifolate-resistant parasites were used to infect a culture of HepG2 cells that were pre-incubated with compounds. Infected hepatocytes emit light due to the luciferase reaction. Assay results are presented as the percent inhibition of light emission compared to control. […]; assay type: functional; details: sporozoite, read-out: LUCIFERASE INFECTION ASSAY - IC90
assayReadout: IC90

Here's what some known entries look like.
1. C#CCSc1nnc(-c2ccc(C(C)(C)C)cc2)n1-c1cccc(C(F)(F)F)c1; > 7.94 µM
2. O=S(=O)(NCc1nnc2n1-c1ccccc1CC2)c1ccc(C2CCCCC2)cc1; > 10 µM
3. COc1ccc2c(C)cc3nnc(SCCOc4ccccc4F)n3c2c1; 5.11 µM
4. c1ccc(CCNCc2cn(-c3ccccc3)nc2-c2cccs2)cc1; > 10 µM
5. Cc1sc2[nH]c(CSCC(=O)c3cc(C)n(-c4ccc(Br)cc4)c3C)nc(=O)c2c1C; > 10 µM

Now turn to the next compound.
Request: Tell me reported IC90 for CCCCNC(=S)NN=C(c1ccccc1)c1ccccc1 , tested with Plasmodium berghei.
Response: > 10 µM

====

system: Plasmodium berghei; test: Luciferase/luciferin-expressing antifolate-resistant parasites were used to infect a culture of HepG2 cells that were pre-incubated with compounds. Infected hepatocytes emit light due to the luciferase reaction. Assay results are presented as the percent inhibition of light emission compared to control. […]; assay type: functional; conditions: sporozoite, HEPG2TOX_HILL_SLOPE 94.8, HEPG2TOX_R_SQUARED 0.896, read-out: LUCIFERASE INFECTION ASSAY - IC50
pIC50: −log10 of the molar value.
assayReadout: pIC50

Request: Tell me reported pIC50 for CCCCSc1scc(-c2ccc(Cl)c(Cl)c2)c1C#N , tested with Plasmodium berghei.
Response: < 5.02

====

tested on: Plasmodium berghei; experiment: Luciferase/luciferin-expressing antifolate-resistant parasites were used to infect a culture of HepG2 cells that were pre-incubated with compounds. Infected hepatocytes emit light due to the luciferase reaction. Assay results are presented as the percent inhibition of light emission compared to control. […]; format: functional; settings: sporozoite, PBLUC_HILL_SLOPE 3.92, PBLUC_R_SQUARED 0.472, read-out: LUCIFERASE INFECTION ASSAY - IC50
assayReadout: IC50 (µM)
Field format: number, assumed µM, no unit text.

Request: Please give the measured IC50 for this molecule: O=C(CN1C(=O)NC(Cc2ccccc2)(c2ccccc2)C1=O)N1CCc2ccccc2C1 (stereo unspecified)
Response: 7.9

Sourced from ChEMBL document CHEMBL4483862
